Could you please report measured TGI for the items listed next?
# Tested on: HT29 colon
# TEST DESCRIPTION: NCI tumour cell line growth inhibition, 48 h

## Input Kindly state the measured TGI obtained for CC(=O)OCCCC(NC(=O)OC(C)(C)C)C(=O)NC(CCCOC(C)=O)C(=O)NC(Cc1ccc([N+](=O)[O-])cc1)C(=O)NCC(=O)OCc1ccccc1 (stereo not drawn) with HT29 colon.
## Output 31.9 µM

## Input Input C=C1C(=O)O[C@H]2[C@H]1CC/C(COC(=O)CSCSCC(=O)OC/C1=C/CC[C@@]3(C)O[C@H]3[C@H]3OC(=O)C(=C)[C@@H]3CC1)=C\CC[C@@]1(C)O[C@@H]21
## Output 2.82 µM

## Input Please answer likewise for CCOC(=O)c1nn2c(nc1=O)sc1ccc3ccccc3c12
## Output > 100 µM

## Input Now consider CC(C)Oc1c(O)c2c3c(oc(=O)n3C=CC2c2ccccc2)c1OC(C)C (stereo not drawn) and answer again.
## Output 77.4 µM

## Input Cool, now O=C(O)Cc1c(-c2ccc([N+](=O)[O-])cc2)c(=O)oc2cc(O)ccc12
## Output > 100 µM

## Input // repeat for Cc1ccc2nc(Cl)c(/C=N/N3C(=O)/C(=C/c4cccc([N+](=O)[O-])c4)N=C3c3ccccc3)cc2c1 and report
## Output > 100 µM

## Input Again, but for COc1ccc(/C=N/N=C(\N)NO)cc1O
## Output > 100 µM

## Input Here is the next compound: CN1CC[C@]23c4c5ccc(O)c4O[C@H]2C(O)CC[C@@]3(O)[C@H]1C5 (stereo partly drawn)
## Output > 100 µM

## Input // repeat for [N-]=[N+]=NC(CCl)c1cn([C@H]2C[C@H](O)[C@@H](CO)O2)c(=O)[nH]c1=O (stereo partly drawn) and report
## Output > 100 µM

## Input Try this compound too: CN(CCNC(=O)c1nn(-c2ccccc2)c2c1Cc1ccccc1-2)CCNC(=O)c1nn(-c2ccccc2)c2c1Cc1ccccc1-2
## Output 3.73 µM

## Input What do you get for CC(CC[C@@H](O)C(C)(C)O)C1[C@@H](O)CC2(C)C3CC(O)C4C(C)(C)[C@@H](OC5OC(CO)C(O)C(O)C5O)CC[C@@]45C[C@@]35CC[C@]12C (stereo partly drawn) ?
## Output > 10 µM

## Input Check CC1(C)CC(C2=NCCO2)CC(C)(C)N1 too.
## Output > 100 µM

## Input Also Cc1cc(C)n(-c2nsc3ccccc23)n1 ?
## Output > 100 µM

## Input Also O=C(O)c1cc(CC2Cc3cc4c(cc3C2=O)CCC4)cc2c1CCC2 (stereo not drawn) , if possible.
## Output > 100 µM

## Input What do you get for c1ccc(-c2nnc(-c3ccccn3)c3c2C[C@@H]2C[C@@H]4Cc5c(-c6ccccn6)nnc(-c6ccccn6)c5[C@@H]4[C@H]32)nc1 ?
## Output > 100 µM

## Input What do we get for O=c1[nH]nnc2c1ncn2C1OC(CO)C(O)C1O (stereo not drawn) ?
## Output > 100 µM

## Input Item: COc1ccc(C(=S)N2CCN(c3cccc(C)c3)CC2)cc1OC
## Output > 100 µM

## Input Try the compound COc1cccc(N2CCN(CC(=O)N3CCN(c4nnc(-c5ccc(Cl)cc5)c(-c5ccc(Cl)cc5)n4)CC3)CC2)c1
## Output > 100 µM

## Input Now give it for O/N=C1/C(=C/c2ccc3c(c2)OCO3)CCCC1C(NO)c1ccc2c(c1)OCO2 (stereo not drawn) too.
## Output 30.4 µM

## Input Consider next the compound COC(=O)c1ccc(-c2nc3cc(Cl)c(Cl)cc3nc2C#N)cc1 in the same way.
## Output > 100 µM

## Input Same question for CC1=C(c2ccccc2)C(c2ccccc2)=C(c2ccccc2)C2(c3ccccc3)C(=O)C(C)CN12 (stereo not drawn) please.
## Output > 100 µM

## Input Note, next up: O=S1(=O)OCCOS(=O)(=O)C1S(=O)(=O)c1ccc2ccccc2c1
## Output > 100 µM

## Input Same thing, different compound: C=C[C@@]1(C)CC[C@@H]2[C@@]3(C1)O[C@H]3CC1[C@](C)(C(=O)OC)CCC[C@@]12C (stereo partly drawn)
## Output 27.1 µM

## Input Would you kindly repeat that for CC[C@H](CCCC[C@H]1CC[C@@H]2CC(=O)C[C@H]12)OC ?
## Output > 100 µM

## Input Try COc1cc(C(=O)/C=C/c2ccc(OCC#N)cc2)cc(OC)c1OC next.
## Output > 100 µM

## Input Another compound to check: Cc1cc(-c2cccc3ccccc23)c(C#N)c(=S)n1C1OC(CO)C(O)C(O)C1O (stereo not drawn)
## Output > 100 µM

## Input Same again, this time with CC(=O)OCC1=C(C(=O)O)N2C(=O)C(NC(=O)CSc3ccncc3)C2SC1 (stereo not drawn)
## Output > 100 µM

## Input Further, for C=C1C(=O)O[C@@H]2C[C@@H](C)[C@@H]3C=CC(=O)[C@@]3(C)[C@@H](O)[C@H]12 ?
## Output 3.88 µM

## Input Can you handle O=C1Nc2ccccc2C1=Nc1cccc2ncccc12 next?
## Output > 100 µM

## Input # iterate: CCOC(=O)N1CCN(/[N+]([O-])=N/Oc2ccc([N+](=O)[O-])cc2[N+](=O)[O-])CC1
## Output 15.7 µM

## Input Then what about the compound O=C1CC(O)CC(=O)C1=C(O)CCCCCCCCCCc1ccccc1 (stereo not drawn) ?
## Output > 100 µM

## Input Another compound: Cc1ccc(NCC(=O)N2CC(=O)Nc3ccccc32)c(C)c1
## Output > 100 µM

## Input Param item: S=c1nc(N2CCCCC2)c2cn[nH]c2[nH]1
## Output > 100 µM

## Input // repeat for CNC(=O)Nc1nc2ccc([N+](=O)[O-])cc2[nH]1 and report
## Output > 100 µM

## Input Repeat with c1coc(CNc2ncnc3[nH]ncc23)c1
## Output > 100 µM

## Input What about this compound? COC(=O)C(Cc1ccccc1)NP(=O)(O)OCC1OC(n2cc(Br)c(=O)[nH]c2=O)CC1O (stereo not drawn)
## Output > 100 µM

## Input Moving on to the next compound: CN(C)c1ccc(/C=C/C(=O)CC(=O)/C=C/c2ccc(N(C)C)cc2)cc1
## Output > 100 µM

## Input Queued: CS(=O)(=O)OC1CCC2(C#N)CCC1C2=O (stereo not drawn)
## Output > 100 µM

---

# Tested on: K-562 leukemia
# TEST DESCRIPTION: NCI tumour cell line growth inhibition, 48 h; in the data active means GI50 below about 0.43 µM; inactive means the rest
Write down one outcome, taken from t for active, f for inactive

## Input Dear all, I need the recorded test outcome for CN(CCO)CC[C@H](CSc1ccccc1)Nc1ccc(S(=O)(=O)NC(=O)c2ccc(N3CCC([C@@H](O)c4ccccc4-c4ccc(Cl)cc4)CC3)cc2)cc1S(=O)(=O)C(F)(F)F , thank you.
## Output f

## Input What would you report for COC(=O)c1ccc(-c2nc3cc(Cl)c(Cl)cc3nc2C#N)cc1 ?
## Output f

## Input Same read-out for NS(=O)(=O)c1ccc(-n2nc(-c3ccc(Cl)cc3)cc2-c2cc(O)ccc2O)cc1 ?
## Output f

## Input How about this compound: O=c1[nH]nnc2c1ncn2C1OC(CO)C(O)C1O (centres undefined)
## Output f

## Input Field entry: CCOC(=O)c1c(C)nc2c(c1N)CC(=O)N2Cc1ccc(OC)cc1
## Output f

## Input Another compound: CC(=O)NC1C(OC[C@@H](CC(=O)N[C@@H](CC(=O)O)CC(=O)N[C@H](CC(=O)N[C@@H](CCCN)CC(=O)N[C@@H](CCCN)CC(=O)N[C@H](CC(N)=O)C(C)C)C(C)C)NC(=O)C[C@@H](N)C(C)C)OC(CO)C(O)C1O (some centres undefined)
## Output f

## Input Please do the same for C=C1C(=O)O[C@H]2[C@H]1CC/C(CNC(=O)/C=C/c1cc(OC)c(OC)c(OC)c1)=C\CC[C@@]1(C)O[C@@H]21 as well.
## Output f

## Input Subsequent entry: CC[C@@H]1c2c(C#N)ncn2-c2cnc(Nc3ccc(C(=O)NC4CCN(C5CCN(CC6CC6)CC5)CC4)cc3OC)nc2N1C1CCCC1
## Output t

## Input Here is the next compound: CN1CCC2(CC1)ONC1=NCCN12
## Output f

---

# System: NCI-H23 lung
# TEST DESCRIPTION: NCI tumour cell line growth inhibition, 48 h; in the data active means GI50 below about 0.43 µM; inactive means the rest
Hi! Could you answer with just one of these? active, inactive

## Input Hey, what did the test say about C[C@]12C[C@H](CCCCCCNCCOC(=O)NCCCc3ccc(N(CCCl)CCCl)cc3)C3=C4CCC(=O)C=C4CCC3C1CC[C@@H]2O (stereo partly drawn) ?
## Output inactive

## Input Continue with OC(Cc1ccncc1)C(Cl)(Cl)Cl (stereo not drawn)
## Output inactive

## Input Another compound to check: COC(=O)c1ccc(-c2nc3cc(Cl)c(Cl)cc3nc2C#N)cc1
## Output inactive

## Input Try this compound next: CCOC(=O)Nc1ccc2c(c1)/C(=N\NC(N)=S)c1ccccc1-2
## Output inactive

## Input Would you kindly repeat that for CC(=O)NC1C(OC[C@@H](CC(=O)N[C@@H](CC(=O)O)CC(=O)N[C@H](CC(=O)N[C@@H](CCCN)CC(=O)N[C@@H](CCCN)CC(=O)N[C@H](CC(N)=O)C(C)C)C(C)C)NC(=O)C[C@@H](N)C(C)C)OC(CO)C(O)C1O (stereo partly drawn) ?
## Output inactive

## Input Same thing, different compound: Oc1c(-c2nnc(-c3ccccc3Cl)o2)sc2nnc(-c3ccccc3)c(-c3ccccc3)c12
## Output inactive

## Input // repeat for CC[C@@H]1c2c(C#N)ncn2-c2cnc(Nc3ccc(C(=O)NC4CCN(C5CCN(CC6CC6)CC5)CC4)cc3OC)nc2N1C1CCCC1 and report
## Output active

## Input // same read-out, input: COc1cc(/C=C\c2cc(OC)c(OC)c(OC)c2)cc(NC(=O)/C=C/c2cc(OC)c(OC)c(OC)c2)c1OC
## Output inactive
